Value source: patent US20050037394

# target.system: IFN-gamma (Homo sapiens, UniProt P01579 P01579:24-161)
# Sequence (P01579 24-161, one chain of several): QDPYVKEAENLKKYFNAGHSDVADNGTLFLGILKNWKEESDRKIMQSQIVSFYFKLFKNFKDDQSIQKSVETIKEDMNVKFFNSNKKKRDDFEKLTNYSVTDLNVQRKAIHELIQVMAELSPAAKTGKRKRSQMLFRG
# test.name: inhibition; IFN-gamma/IFN-gamma-R1 ELISA day 1; day 2 270 nM
# measurement.context: tags: R&D Systems, Minneapolis; chain copies: 2; label: 5'-32P
pIC50: −log10 of the molar value.
measured.property: pIC50

binder | measured.property | test.value
ARC820 (AMX(192)_D11) (mixed, dRmY: deoxy A,G; 2'-OMe C,U (cDNA printed, T=U)) DNA: GGGAGAGGAGAGAACGTTCTACGGGGAGGAGGGTGGGGTAGCAGGTGTGGCAGGTCGATCGATCGATCATCGATG | pIC50 | 6.55
